Test system: RAW264.7
Assay: Antiinflammatory activity in mouse RAW264.7 cells assessed as inhibition of LPS-induced NO production incubated for 24 hrs by Griess reagent based assay
Format: functional, cell-based
Conditions: RAW264.7, 24 h
Label yes when IC50 is strictly below 9 µM; otherwise label no.

C=C1C(=O)O[C@@H]2C[C@]3(C)[C@@H](CC[C@@H](C)OC(=O)CCCCCCC[C@@H]4OC(=O)C[C@H]4O)[C@@H]3C[C@H]12 | yes
C=C1C(=O)O[C@@H]2C[C@]3(C)[C@@H](CC[C@@H](C)OC(=O)Cc4ccc(O)cc4C)[C@@H]3C[C@H]12 | yes
C=C1C(=O)O[C@@H]2C[C@]3(C)[C@@H](CC[C@@H](C)OC(=O)CCCCCCC/C=C/C/C=C/CCCCC)[C@@H]3C[C@H]12 | no
C=C1C(=O)O[C@@H]2C[C@]3(C)C(CC[C@@H](C)OC(=O)CCCCCCCC(=O)O)[C@@H]3C[C@H]12 (stereo partly specified) | no
C=C1C(=O)O[C@@H]2C[C@]3(C)C(CC[C@@H](C)OC(=O)CCCCCCCCO)[C@@H]3C[C@H]12 (stereo partly specified) | no
